- Tested on: CD8+ T cells
- TEST_PROTOCOL: In vitro T-cell priming immunogenicity assay (aAPC with pMHC and anti-CD28, multimer staining)
- Assay type: cell-based, human
- EXPERIMENTAL_CONTEXT: HLA-A*02 restricted peptides; percentage of positive wells and donors (among evaluable)

SUBSTANCE | Wells positive [%]
44 (FIIEEQSFL; listed as Homo sapiens) [compound 44] | “+” (<20% = +)
41 (ILASIFETV; listed as Homo sapiens) [compound 41] | “+++” (50% - 69% = +++)
52 (VLLEDVDAAFL; listed as Homo sapiens) [compound 52] | “+” (<20% = +)
1 (LLSGQLPTI; listed as Homo sapiens) [compound 1] | “+++” (50% - 69% = +++)
36 (VILDIPLLFET; listed as Homo sapiens) [compound 36] | “++” (20% - 49% = ++)
2 (LLSEETPSA; listed as Homo sapiens) [compound 2] | “+” (<20% = +)
258 (RIYPFLLMV; listed as Homo sapiens) [compound 258] | “++++” (≥70% = ++++)
47 (GLLPKLTAL; listed as Homo sapiens) [compound 47] | “++” (20% - 49% = ++)
24 (AVLGFSFRL; listed as Homo sapiens) [compound 24] | “++++” (≥70% = ++++)
40 (FLNSVIVDL; listed as Homo sapiens) [compound 40] | “+++” (50% - 69% = +++)
8 (ALYAVIEKA; listed as Homo sapiens) [compound 8] | “+” (<20% = +)
7 (NLLGMIFSM; listed as Homo sapiens) [compound 7] | “++++” (≥70% = ++++)
22 (ALKKHLTSV; listed as Homo sapiens) [compound 22] | “++++” (≥70% = ++++)
28 (FLSNANPSL; listed as Homo sapiens) [compound 28] | “++++” (≥70% = ++++)
68 (QIAAFLFTV; listed as Homo sapiens) [compound 68] | “+++” (50% - 69% = +++)
61 (SLLNKDLSL; listed as Homo sapiens) [compound 61] | “+” (<20% = +)
26 (FLGSFIDHV; listed as Homo sapiens) [compound 26] | “+” (<20% = +)
256 (ALQETPPQV; listed as Homo sapiens) [compound 256] | “+” (<20% = +)
59 (RLHREVAQV; listed as Homo sapiens) [compound 59] | “+” (<20% = +)
30 (ILSTLDVEL; listed as Homo sapiens) [compound 30] | “++” (20% - 49% = ++)

# credit: patent US10702592B2
